- Tested on: blackgrass (Alopecurus myosuroides)
- assay_procedure: Test D pre-/postemergence plant response
- Format: in vivo
- experimental_setup: Postemergence, 31 g ai/ha; scale 0 to 100 (0 no effect, 100 complete control)
I'd be grateful if you could share measured Blackgrass plant response rating for these entries.
Answer with the value's number alone.

Need Blackgrass plant response rating, item Clc1cnc(Oc2ccccc2-c2cc(C3CC3)on2)nc1
5

What value of measured Blackgrass plant response rating is listed for CC(F)(F)c1cc(-c2ccccc2Oc2ncc(Br)cn2)no1 ?
0

Dear colleague, I am looking for the recorded Blackgrass plant response rating of the following compound: Fc1cccc(Oc2ncc(Cl)cn2)c1-c1cc(C2CC2)on1
5

Which Blackgrass plant response rating value belongs to FC(F)(Br)c1cc(-c2ccccc2Oc2ncc(Cl)cn2)no1 ?
30

I am curious: what Blackgrass plant response rating value has been reported for Fc1ccc(Oc2ncc(Cl)cn2)c(-c2cc(C(F)F)on2)c1Cl ?
10

Param item = Clc1cnc(Oc2ccccc2-c2ccon2)nc1 ; retrieve measured Blackgrass plant response rating.
0

State the recorded Blackgrass plant response rating for this entry: N#Cc1cccc(Oc2ncc(Cl)cn2)c1-c1cc(C(F)F)on1
0

Recorded Blackgrass plant response rating for CC(F)(F)c1cc(-c2ccccc2Oc2ncc(Cl)cn2)on1 , please?
5

----------
Please respond with reported Plant response rating, Wheat for every item in the list.
- System: winter wheat (Triticum aestivum)
- assay_procedure: Test D pre-/postemergence plant response
- Assay type: in vivo
- experimental_setup: Postemergence, 62 g ai/ha; scale 0 to 100, 0 no effect, 100 complete control
No unit in the answer, only the number.

Quick check: Plant response rating, Wheat on winter wheat (Triticum aestivum), item FC(Cl)c1cc(-c2ccccc2Oc2ncc(Cl)cn2)no1 (stereo not shown) ?
5

Please provide the recorded Plant response rating, Wheat for FC(F)(Cl)c1cc(-c2ccccc2Oc2ncc(Cl)cn2)no1 , tested on winter wheat (Triticum aestivum).
5

Query for winter wheat (Triticum aestivum): what Plant response rating, Wheat does the record show for Fc1cccc(Oc2ncc(Cl)cn2)c1-c1cc(C2CC2)on1 ?
30

Write down the reported Plant response rating, Wheat of FC(F)c1cc(-c2c(Cl)cccc2Oc2ncc(Cl)cn2)on1 , test system: winter wheat (Triticum aestivum).
0

----------
- Tested on: pigweed (Amaranthus retroflexus)
- assay_procedure: Test B pre-/postemergence plant response
- Format: in vivo
- experimental_setup: Preemergence, 500 g ai/ha; 0 to 100 scale (0 no effect, 100 complete control)
measure: Plant response rating, Pigweed
// no unit, no text: just the number

Given Clc1cnc(Oc2ccccc2-c2cccc(Cl)n2)nc1 [Compound 16] , state its recorded Plant response rating, Pigweed.
20

Field request: Plant response rating, Pigweed | item: FC(F)(F)c1cnc(Oc2ccccc2-c2cscn2)nc1 [Compound 14]
100

Item under review: Clc1cnc(Oc2ccccc2-c2cccnc2)nc1 [Compound 4] . Reported Plant response rating, Pigweed?
70

What value of measured Plant response rating, Pigweed is listed for FC(F)(F)c1cnc(Oc2ccccc2-c2cncs2)nc1 [Compound 13] ?
80

Consider the compound shown here: Clc1cccc(-c2ccccc2Oc2ncc(Br)cn2)n1 [Compound 17] What is its recorded Plant response rating, Pigweed?
0

Consider the compound FC(F)(F)c1cccc(-c2ccccc2Oc2ncc(Cl)cn2)n1 [Compound 19] and give its measured Plant response rating, Pigweed.
20

Plant response rating, Pigweed lookup needed for Cn1cc(-c2ccccc2Oc2ncc(Cl)cn2)cn1 [Compound 11] , thanks.
30

Query (compound): Cn1ccc(-c2ccccc2Oc2ncc(Cl)cn2)n1 [Compound 10] ; field requested: Plant response rating, Pigweed
30

----------
- Tested on: morningglory (Ipomoea coccinea)
- assay_procedure: Test D pre-/postemergence plant response
- Type: in vivo
- experimental_setup: Preemergence; 31 g ai/ha; scale 0 to 100 (0 no effect, 100 complete control)
measure: Plant response rating, Morningglory

Requested field: Plant response rating, Morningglory. Item: Clc1cnc(Oc2ccccc2-c2cc(C3CC3)on2)nc1 [Compound 183]
0

Quick one: Plant response rating, Morningglory of Fc1cccc(Oc2ncc(Br)cn2)c1-c1cc(C(F)F)on1 [Compound 118] ?
5

Fill blank: measured Plant response rating, Morningglory of the compound Cc1cc(-c2ccccc2Oc2ncc(Cl)cn2)on1 [Compound 58] is ____.
25

Any idea what Plant response rating, Morningglory was measured for FC(F)c1cc(-c2c(Cl)cccc2Oc2ncc(Cl)cn2)on1 [Compound 120] ?
30

I would be grateful if you could share the reported Plant response rating, Morningglory for Cc1cc(-c2c(F)cccc2Oc2ncc(Cl)cn2)on1 [Compound 229] .
0

Which Plant response rating, Morningglory value is on record for Cc1cc(-c2ccccc2Oc2ncc(Cl)cn2)no1 [Compound 60] ?
0

----------
Give measured plant injury at 125 g/ha for each item. Keep answers brief.
- Tested on: winter wheat (Triticum aestivum)
- assay_procedure: Test D pre-/postemergence plant response
- Assay type: in vivo
- experimental_setup: Triticum aestivum, post-emergence; Postemergence, 125 g ai/ha; scale 0 to 100, 0 no effect, 100 complete control; read-out: Plant response rating, Wheat
# unit: % | format: bare number

// fetch winter wheat (Triticum aestivum) plant injury at 125 g/ha for Fc1cccc(Oc2ncc(Cl)cn2)c1-c1cc(C(F)(F)F)on1
35

winter wheat (Triticum aestivum) / plant injury at 125 g/ha / FC(F)(F)c1cc(-c2ccccc2Oc2ncc(Cl)cn2)no1 : value?
20

Give recorded plant injury at 125 g/ha with winter wheat (Triticum aestivum) for the following compound: Fc1cccc(Oc2ncc(Br)cn2)c1-c1cc(C(F)F)no1
10

Form: Entry = FC(F)c1cc(-c2ccccc2Oc2ncc(Cl)cn2)on1 | System = winter wheat (Triticum aestivum) | plant injury at 125 g/ha = ____
0

----------
- Test system: galium (catchweed bedstraw, Galium aparine)
- assay_procedure: Test D pre-/postemergence plant response
- Assay type: in vivo
- experimental_setup: Postemergence, 16 g ai/ha; scale 0 to 100 (0 no effect, 100 complete control)
So basically: Galium plant response rating at 70 or higher? That is Fulfilled. Lower than 70? That is Not fulfilled.

Could you verify whether the entry Cn1nnc(-c2ccccc2Oc2ncc(Br)cn2)n1 shows Galium plant response rating of no less than 70?
Not fulfilled

Please indicate if the recorded Galium plant response rating for Cc1cc(-c2ccccc2Oc2ncc(Cl)cn2)on1 meets or exceeds 70.
Not fulfilled

Entry Fc1cccc(Oc2ncc(Br)cn2)c1-c1cc(C(F)F)on1 : is its Galium plant response rating no less than 70?
Fulfilled

Form field: Galium plant response rating at least 70? Entry: FC(F)c1cc(-c2c(Cl)cccc2Oc2ncc(Cl)cn2)on1
Fulfilled

Is reported Galium plant response rating greater than or equal to 70 here: Fc1ccc(Oc2ncc(Cl)cn2)c(-c2cc(C(F)F)on2)c1F
Fulfilled

API: above_or_equal(metric=Galium plant response rating, cutoff=70) for item FC(F)(F)c1cc(-c2ccccc2Oc2ncc(Cl)cn2)ncn1
Not fulfilled

----------
- Tested on: giant foxtail (Setaria faberii)
- assay_procedure: Test D pre-/postemergence plant response
- Format: in vivo
- experimental_setup: Postemergence, 16 g ai/ha; scale 0 to 100 (0 no effect, 100 complete control)
Exercise: state measured Foxtail, Giant plant response rating for each of the compounds provided.
Keep it simple and answer with nothing but the number.

Lab note: need Foxtail, Giant plant response rating for FC(Cl)c1cc(-c2ccccc2Oc2ncc(Cl)cn2)no1 (centres unmarked) on giant foxtail (Setaria faberii), anyone have it?
5

Give Foxtail, Giant plant response rating (giant foxtail (Setaria faberii)) of the following compound: Cn1nnc(-c2ccccc2Oc2ncc(Br)cn2)n1
0

Look up Foxtail, Giant plant response rating with giant foxtail (Setaria faberii) for this compound: N#Cc1cccc(Oc2ncc(Cl)cn2)c1-c1cc(C(F)(F)F)on1
40

Short answer please: Foxtail, Giant plant response rating, giant foxtail (Setaria faberii), entry Cc1cc(-c2ccccc2Oc2ncc(Cl)cn2)on1
0

Query for giant foxtail (Setaria faberii): what Foxtail, Giant plant response rating does the record show for FC(F)(F)c1cc(-c2c(Br)cccc2Oc2ncc(Cl)cn2)no1 ?
5

Request body: readout Foxtail, Giant plant response rating, system giant foxtail (Setaria faberii), query Fc1cccc(Oc2ncc(Cl)cn2)c1-c1cc(C2CC2)on1 . Return the value.
5

Missing value: Foxtail, Giant plant response rating, giant foxtail (Setaria faberii), entry Fc1ccc(Oc2ncc(Cl)cn2)c(-c2cc(C(F)F)on2)c1F . Fill in?
5

For the record CC(F)(F)c1cc(-c2ccccc2Oc2ncc(Br)cn2)no1 , what value of Foxtail, Giant plant response rating is listed for giant foxtail (Setaria faberii)?
5

----------
- System: corn (Zea mays)
- assay_procedure: Test D pre-/postemergence plant response
- Assay type: in vivo
- experimental_setup: Postemergence, 31 g ai/ha; scale 0 to 100 (0 no effect, 100 complete control)
Can you tell me Corn plant response rating for the items I'm about to list?
Lab note: record the figure alone, no unit after it.

Quick check: Corn plant response rating of CC(F)(F)c1cc(-c2ccccc2Oc2ncc(Cl)cn2)on1 ?
5

Which Corn plant response rating value belongs to FC(F)c1cc(-c2c(Cl)cccc2Oc2ncc(Br)cn2)on1 ?
20

Corn plant response rating lookup needed for FC(F)c1cc(-c2c(Cl)cccc2Oc2ncc(Cl)cn2)on1 , thanks.
15

Could you share which Corn plant response rating value was measured for Cn1nnc(-c2ccccc2Oc2ncc(Br)cn2)n1 ?
0

I'd like to know its Corn plant response rating. The molecule in question is FC(F)(Cl)c1cc(-c2ccccc2Oc2ncc(Cl)cn2)no1
5

Any idea what Corn plant response rating was measured for Clc1cnc(Oc2ccccc2-c2ccon2)nc1 ?
0

Endpoint output: Corn plant response rating of Fc1ccc(Oc2ncc(Cl)cn2)c(-c2cc(C(F)F)on2)c1F . Value?
10

Which measured Corn plant response rating value corresponds to N#Cc1cccc(Oc2ncc(Cl)cn2)c1-c1cc(C(F)(F)F)on1 ?
5

May I ask what Corn plant response rating has been recorded for Fc1ccc(Oc2ncc(Cl)cn2)c(-c2cc(C(F)(Cl)Cl)on2)c1 ?
0
